measured-on: hLTBP3-proTGFβ1 complex made by transfected cells (cell-based potency assay) (human, UniProt Q9NS15 44-1303; P01137 30-390)
Sequence (Q9NS15 44-1303, chain 1 of 2): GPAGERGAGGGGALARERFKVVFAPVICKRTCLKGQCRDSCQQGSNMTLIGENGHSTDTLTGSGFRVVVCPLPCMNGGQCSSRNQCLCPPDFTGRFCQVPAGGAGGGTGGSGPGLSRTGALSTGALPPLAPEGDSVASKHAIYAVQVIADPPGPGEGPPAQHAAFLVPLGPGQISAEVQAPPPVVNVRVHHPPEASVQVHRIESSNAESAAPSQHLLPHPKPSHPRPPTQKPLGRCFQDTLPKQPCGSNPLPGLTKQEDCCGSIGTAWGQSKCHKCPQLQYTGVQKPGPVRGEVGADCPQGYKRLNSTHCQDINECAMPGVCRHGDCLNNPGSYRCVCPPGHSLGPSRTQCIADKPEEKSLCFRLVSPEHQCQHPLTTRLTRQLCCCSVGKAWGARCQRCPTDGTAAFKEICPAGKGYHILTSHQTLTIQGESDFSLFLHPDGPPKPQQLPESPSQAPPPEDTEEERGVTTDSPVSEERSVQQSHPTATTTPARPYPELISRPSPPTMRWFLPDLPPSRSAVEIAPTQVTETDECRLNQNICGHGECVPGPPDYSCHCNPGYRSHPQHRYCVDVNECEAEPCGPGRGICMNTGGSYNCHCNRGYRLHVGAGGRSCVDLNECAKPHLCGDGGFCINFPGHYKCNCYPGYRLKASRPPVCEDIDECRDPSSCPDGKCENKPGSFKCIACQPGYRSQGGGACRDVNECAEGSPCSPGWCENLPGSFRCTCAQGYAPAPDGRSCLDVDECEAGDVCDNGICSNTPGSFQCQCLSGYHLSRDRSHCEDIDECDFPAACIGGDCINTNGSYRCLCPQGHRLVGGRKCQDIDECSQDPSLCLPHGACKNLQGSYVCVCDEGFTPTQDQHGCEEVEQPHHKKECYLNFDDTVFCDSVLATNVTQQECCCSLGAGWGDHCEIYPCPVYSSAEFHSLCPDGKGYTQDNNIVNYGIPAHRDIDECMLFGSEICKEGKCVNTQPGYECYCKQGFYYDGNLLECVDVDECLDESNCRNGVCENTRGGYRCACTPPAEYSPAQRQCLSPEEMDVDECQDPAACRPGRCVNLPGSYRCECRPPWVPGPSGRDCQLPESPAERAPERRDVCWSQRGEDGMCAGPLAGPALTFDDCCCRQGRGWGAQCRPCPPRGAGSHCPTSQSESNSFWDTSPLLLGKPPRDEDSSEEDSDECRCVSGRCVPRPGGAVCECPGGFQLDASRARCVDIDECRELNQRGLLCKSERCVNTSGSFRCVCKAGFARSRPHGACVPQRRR
Sequence (P01137 30-390, chain 2 of 2): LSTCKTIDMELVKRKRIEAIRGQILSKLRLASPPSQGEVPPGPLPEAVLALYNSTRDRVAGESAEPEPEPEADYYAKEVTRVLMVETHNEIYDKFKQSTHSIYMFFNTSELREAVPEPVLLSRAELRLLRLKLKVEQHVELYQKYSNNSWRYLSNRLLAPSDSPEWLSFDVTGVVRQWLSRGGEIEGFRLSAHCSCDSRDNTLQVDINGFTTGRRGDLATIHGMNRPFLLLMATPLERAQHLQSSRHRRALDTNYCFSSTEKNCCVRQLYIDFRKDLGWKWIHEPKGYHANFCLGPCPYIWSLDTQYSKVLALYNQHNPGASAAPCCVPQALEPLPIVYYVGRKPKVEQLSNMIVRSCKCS
test: cell-based or functional assay
Exam item: assign Criterion met to entries whose IC50, reporter cell assay of TGFβ1 activation is below 0.8 nM and Criterion not met to entries at or above 0.8 nM. Note that a value of exactly 0.8 nM receives Criterion not met.

binder: Ab20 (antibody, IgG4, V domains shown) VH: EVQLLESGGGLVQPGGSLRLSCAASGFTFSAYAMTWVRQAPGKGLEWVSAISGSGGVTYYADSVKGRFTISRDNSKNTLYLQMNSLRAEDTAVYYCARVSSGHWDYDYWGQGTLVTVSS VL: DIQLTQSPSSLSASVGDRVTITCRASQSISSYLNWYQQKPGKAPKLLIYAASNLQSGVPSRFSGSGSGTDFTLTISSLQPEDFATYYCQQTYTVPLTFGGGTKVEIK
group-label: Criterion not met

binder: Ab11 (antibody, IgG4, V domains shown) VH: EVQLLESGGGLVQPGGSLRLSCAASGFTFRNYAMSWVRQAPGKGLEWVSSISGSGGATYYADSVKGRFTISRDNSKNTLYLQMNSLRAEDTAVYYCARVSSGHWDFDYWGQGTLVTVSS VL: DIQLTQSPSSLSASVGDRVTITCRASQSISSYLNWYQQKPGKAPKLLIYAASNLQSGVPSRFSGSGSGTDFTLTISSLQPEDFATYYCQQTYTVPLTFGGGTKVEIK
group-label: Criterion not met

binder: Ab21 (antibody, V domains shown) VH: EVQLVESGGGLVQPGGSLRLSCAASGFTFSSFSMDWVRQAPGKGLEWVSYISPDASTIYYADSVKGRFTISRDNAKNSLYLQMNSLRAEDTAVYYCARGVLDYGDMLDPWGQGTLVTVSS VL: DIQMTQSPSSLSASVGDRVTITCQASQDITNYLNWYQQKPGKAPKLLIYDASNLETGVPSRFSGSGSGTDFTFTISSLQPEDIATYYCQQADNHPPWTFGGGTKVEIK
group-label: Criterion met

binder: Ab26 (antibody, IgG4, V domains shown) VH: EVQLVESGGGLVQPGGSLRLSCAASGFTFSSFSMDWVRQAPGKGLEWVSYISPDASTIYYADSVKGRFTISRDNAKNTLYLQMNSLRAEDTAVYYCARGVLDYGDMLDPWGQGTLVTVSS VL: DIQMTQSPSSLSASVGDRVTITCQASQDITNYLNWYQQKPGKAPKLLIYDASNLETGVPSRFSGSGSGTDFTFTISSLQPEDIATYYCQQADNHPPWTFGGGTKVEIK
group-label: Criterion met

Here is another binder to look at.
Determine whether this binder shows IC50, reporter cell assay of TGFβ1 activation lower than 0.8 nM (ties excluded): Ab25 (antibody, V domains shown) VH: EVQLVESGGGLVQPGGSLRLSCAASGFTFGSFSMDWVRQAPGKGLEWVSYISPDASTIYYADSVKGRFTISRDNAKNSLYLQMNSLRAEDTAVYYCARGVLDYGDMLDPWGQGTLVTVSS VL: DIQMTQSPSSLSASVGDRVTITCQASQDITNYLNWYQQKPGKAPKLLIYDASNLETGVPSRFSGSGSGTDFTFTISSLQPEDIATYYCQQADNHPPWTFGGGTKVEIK
Criterion met
